read-out: solute carrier (SLCO1B1), SLCO1B1 (gene 10599); assay: LTEA_HepaRG_SLCO1B1: Life Technologies and Expression Analysis (LTEA) Assay for solute carrier (SLCO1B1) using HepaRG (AID 2283530); conditions: mRNA level, 48 h; actives raise or lower the signal
The source made the active and inactive calls. Rule for the calls: active = hit-call score of the fitted dose curve at least 0.9, where 1 is the maximum; inactive = score below 0.9.
Labels: active, inactive

INSERT INTO assay_data (molecule, group) VALUES
  ('CCOP(=S)(OCC)Oc1nc(Cl)n(C(C)C)n1', 'inactive'),
  ('Clc1nc(Cl)nc(Nc2ccccc2Cl)n1', 'inactive'),
  ('CC(C)N1C(=O)N(c2ccccc2)CSC1=NC(C)(C)C', 'inactive'),
  ('CCOc1nc(F)cc2nc(S(=O)(=O)Nc3c(Cl)cccc3Cl)nn12', 'inactive'),
  ('Cc1nc(N(C)C)nc(OC(=O)N(C)C)c1C', 'inactive'),
  ('CCOC(=O)C(C)OC(=O)c1cc(Oc2ccc(C(F)(F)F)cc2Cl)ccc1[N+](=O)[O-] (stereo unspecified)', 'inactive'),
  ('CC1(C)C(C=C(Cl)Cl)C1C(=O)OC(C#N)c1cccc(Oc2ccccc2)c1 (stereo unspecified)', 'inactive'),
  ('Cc1ccc(N=CN(C)C=Nc2ccc(C)cc2C)c(C)c1', 'inactive'),
  ('CC(C)Oc1cccc(NC(=O)c2ccccc2C(F)(F)F)c1', 'inactive'),
  ('Cc1cc(C)nc(Nc2ccccc2)n1', 'inactive'),
  ('COCC(C)N(C(=O)CCl)c1c(C)csc1C (stereo unspecified)', 'inactive'),
  ('COP(=O)(OC)O/C(C)=C/C(=O)N(C)C', 'inactive'),
  ('O=P(O)(O)CCCl', 'inactive'),
  ('Cn1c(-c2ccccc2)cc(-c2ccccc2)[n+]1C', 'active'),
  ('Nc1c(Cl)c(Cl)nc(C(=O)O)c1Cl', 'inactive'),
  ('O=c1n(Cl)c(=O)n(Cl)c(=O)n1Cl', 'inactive');
